Reported residual activity values for a set of compounds
Molecular target: Fibroblast growth factor receptor 2 (Homo sapiens)
Conditions: at 1 µM
value type: residual activity (%)

compound	target of assay	value type	reported
CCc1nc(-c2ccc(OC)cc2)[nH]c1-c1ccncc1	Fibroblast growth factor receptor 2 (Homo sapiens)	residual activity	121
O=C1Nc2ccc3ncsc3c2/C1=C/c1c[nH]cn1	Fibroblast growth factor receptor 2 (Homo sapiens)	residual activity	18
O=c1[nH]c2ccccc2n1C1CCN(Cc2ccc(-c3nc4cc5[nH]cnc5cc4nc3-c3ccccc3)cc2)CC1	Fibroblast growth factor receptor 2 (Homo sapiens)	residual activity	111
C[S+]([O-])c1ccc(-c2nc(-c3ccc(F)cc3)c(-c3ccncc3)[nH]2)cc1 (configuration not stated)	Fibroblast growth factor receptor 2 (Homo sapiens)	residual activity	99
O=C1c2ccccc2-c2nc3nnnn3nc21	Fibroblast growth factor receptor 2 (Homo sapiens)	residual activity	118
O=C1NC(=O)c2c1c1c3ccccc3n3c1c1c2c2ccccc2n1C1CCC3O1	Fibroblast growth factor receptor 2 (Homo sapiens)	residual activity	83
COc1cc2ncnc(Nc3ccc(OCc4ccccc4)cc3)c2cc1OC	Fibroblast growth factor receptor 2 (Homo sapiens)	residual activity	100
